meta.source: patent US20260199485A1

STUDY_SYSTEM: CNOT7-FKBP12(F36V) fusion protein (Homo sapiens, UniProt Q9UIV1)
Construct: expressed in transfected cells; host or cells: H1299 cells; anti-HA immunoprecipitation, HA-peptide elution
Sequence (Q9UIV1 with tags, fused parts or gaps): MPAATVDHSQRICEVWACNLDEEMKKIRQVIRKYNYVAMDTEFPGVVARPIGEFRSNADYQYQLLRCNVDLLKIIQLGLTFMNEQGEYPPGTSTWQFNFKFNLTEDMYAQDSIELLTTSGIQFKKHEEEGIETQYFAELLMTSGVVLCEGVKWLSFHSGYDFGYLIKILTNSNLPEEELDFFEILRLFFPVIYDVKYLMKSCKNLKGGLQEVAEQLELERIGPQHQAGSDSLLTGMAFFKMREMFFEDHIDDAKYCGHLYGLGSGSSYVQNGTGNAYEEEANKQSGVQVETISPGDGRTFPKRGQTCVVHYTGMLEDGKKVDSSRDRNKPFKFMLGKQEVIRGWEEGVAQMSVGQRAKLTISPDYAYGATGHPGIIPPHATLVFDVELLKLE
PROTOCOL_NOTES: Biochemical gel assay: degradation/deadenylation of RNA substrate with immunoprecipitated CNOT7-FKBP12(F36V)
Design: key: +: an activity observed as compared to DMSO control; −: no activity observed as compared to DMSO control
CONDITION_SUMMARY: Table 8; degradation of RNA, compared to DMSO control

>  <COMPOUND>
Cc1c[nH]c(=O)nc1SCC(=O)NCc1ccc(OCCOCCOCCOCCn2cc(COc3ccc(NC(=O)Nc4nc(CC(=O)N5CCN(C)CC5)cs4)cc3)nn2)cc1

>  <STUDY_SYSTEM>
CNOT7-FKBP12(F36V) fusion protein (Homo sapiens, UniProt Q9UIV1)

>  <Activity by gel>
−

$$$$
>  <COMPOUND>
COc1ccc(CNC(=O)[C@@H](COCCOCCOCCn2cc(COCCOCCOCCOCCOc3ccc(NC(=O)Nc4nc(CC(=O)N5CCN(C)CC5)cs4)cc3)nn2)Sc2nc(=O)[nH]cc2C)cc1

>  <STUDY_SYSTEM>
CNOT7-FKBP12(F36V) fusion protein (Homo sapiens, UniProt Q9UIV1)

>  <Activity by gel>
−

$$$$
>  <COMPOUND>
COc1ccc([C@@H](C)NC(=O)[C@H](CCOCCOCCOCCn2cc(COCCOCCOCCOCCOc3ccc(NC(=O)Nc4nc(CC(=O)N5CCN(C)CC5)cs4)cc3)nn2)Sc2nc(=O)[nH]cc2Cl)c(F)c1

>  <STUDY_SYSTEM>
CNOT7-FKBP12(F36V) fusion protein (Homo sapiens, UniProt Q9UIV1)

>  <Activity by gel>
−

$$$$
>  <COMPOUND>
COc1ccc(C(C)NC(=O)C(COCCOCCOCCc2cn(COc3ccc(NC(=O)Nc4nc(CC(=O)N5CCN(C)CC5)cs4)cc3)nn2)Sc2nc(=O)[nH]cc2C)c(F)c1 (stereo not drawn)

>  <STUDY_SYSTEM>
CNOT7-FKBP12(F36V) fusion protein (Homo sapiens, UniProt Q9UIV1)

>  <Activity by gel>
−

$$$$
>  <COMPOUND>
COc1ccc2c(c1)C[C@H](COCCOCCOCCOCCn1cc(COCCOCCOc3ccc(NC(=O)Nc4nc(CC(=O)N5CCN(C)CC5)cs4)cc3)nn1)C(C(=O)CSc1nc(=O)[nH]cc1C)C2 (stereo partly drawn)

>  <STUDY_SYSTEM>
CNOT7-FKBP12(F36V) fusion protein (Homo sapiens, UniProt Q9UIV1)

>  <Activity by gel>
+

$$$$
>  <COMPOUND>
COc1ccc([C@@H](C)NC(=O)[C@H](CCC(=O)N(C)Cc2cn(CCOc3ccc(NC(=O)Nc4nc(CC(=O)N5CCN(C)CC5)cs4)cc3)nn2)Sc2nc(=O)[nH]cc2C)c(F)c1

>  <STUDY_SYSTEM>
CNOT7-FKBP12(F36V) fusion protein (Homo sapiens, UniProt Q9UIV1)

>  <Activity by gel>
−

$$$$
>  <COMPOUND>
COc1ccc(CNC(=O)[C@H](COCCOCCOCCn2cc(COCCOCCOc3ccc(NC(=O)Nc4nc(CC(=O)N5CCN(C)CC5)cs4)cc3)nn2)Sc2nc(=O)[nH]cc2C)cc1

>  <STUDY_SYSTEM>
CNOT7-FKBP12(F36V) fusion protein (Homo sapiens, UniProt Q9UIV1)

>  <Activity by gel>
−

$$$$
>  <COMPOUND>
COc1ccc2c(c1)C[C@@H](COCCOCCOCCOCCn1cc(COCCOCCOCCOCCOc3ccc(NC(=O)Nc4nc(CC(=O)N5CCN(C)CC5)cs4)cc3)nn1)N(C(=O)CSc1nc(=O)[nH]cc1C)C2

>  <STUDY_SYSTEM>
CNOT7-FKBP12(F36V) fusion protein (Homo sapiens, UniProt Q9UIV1)

>  <Activity by gel>
+ (weak)

$$$$
>  <COMPOUND>
COc1ccc(CNC(=O)[C@@H](COCCOCCOCCn2cc(COCCOCCOc3ccc(NC(=O)Nc4nc(CC(=O)N5CCN(C)CC5)cs4)cc3)nn2)Sc2nc(=O)[nH]cc2C)c(F)c1

>  <STUDY_SYSTEM>
CNOT7-FKBP12(F36V) fusion protein (Homo sapiens, UniProt Q9UIV1)

>  <Activity by gel>
−

$$$$
>  <COMPOUND>
COc1ccc(C(C)NC(=O)C(CCOCCOCCOCCn2cc(COCCOCCOc3ccc(NC(=O)Nc4nc(CC(=O)N5CCN(C)CC5)cs4)cc3)nn2)Sc2nc(=O)[nH]cc2Cl)c(F)c1 (stereo not drawn)

>  <STUDY_SYSTEM>
CNOT7-FKBP12(F36V) fusion protein (Homo sapiens, UniProt Q9UIV1)

>  <Activity by gel>
+ (weak)

$$$$
>  <COMPOUND>
COc1ccc(C(C)NC(=O)C(CCC(=O)N(C)c2cccc(OCCOc3ccc(NC(=O)Nc4nc(CC(=O)N5CCN(C)CC5)cs4)cc3)c2)Sc2nc(=O)[nH]cc2C)c(F)c1 (stereo not drawn)

>  <STUDY_SYSTEM>
CNOT7-FKBP12(F36V) fusion protein (Homo sapiens, UniProt Q9UIV1)

>  <Activity by gel>
−

$$$$
>  <COMPOUND>
COc1ccc(CNC(=O)[C@H](COCCOCCOCCn2cc(COCCOCCOCCOCCOc3ccc(NC(=O)Nc4nc(CC(=O)N5CCN(C)CC5)cs4)cc3)nn2)Sc2nc(=O)[nH]cc2C)c(F)c1

>  <STUDY_SYSTEM>
CNOT7-FKBP12(F36V) fusion protein (Homo sapiens, UniProt Q9UIV1)

>  <Activity by gel>
+

$$$$
>  <COMPOUND>
COc1ccc([C@@H](C)NC(=O)[C@H](COCCOCCOCc2cn(CCOc3ccc(NC(=O)Nc4nc(CC(=O)N5CCN(C)CC5)cs4)cc3)nn2)Sc2nc(=O)[nH]cc2Cl)c(F)c1

>  <STUDY_SYSTEM>
CNOT7-FKBP12(F36V) fusion protein (Homo sapiens, UniProt Q9UIV1)

>  <Activity by gel>
+

$$$$
>  <COMPOUND>
COc1ccc2c(c1)C[C@@H](COCCOCCOCCOCCn1cc(COCCOCCOc3ccc(NC(=O)Nc4nc(CC(=O)N5CCN(C)CC5)cs4)cc3)nn1)C(C(=O)CSc1nc(=O)[nH]cc1C)C2 (stereo partly drawn)

>  <STUDY_SYSTEM>
CNOT7-FKBP12(F36V) fusion protein (Homo sapiens, UniProt Q9UIV1)

>  <Activity by gel>
−

$$$$
>  <COMPOUND>
COc1ccc(CNC(=O)[C@H](COCCOCCOCCn2cc(COCCOCCOCCOCCOc3ccc(NC(=O)Nc4nc(CC(=O)N5CCN(C)CC5)cs4)cc3)nn2)Sc2nc(=O)[nH]cc2C)cc1

>  <STUDY_SYSTEM>
CNOT7-FKBP12(F36V) fusion protein (Homo sapiens, UniProt Q9UIV1)

>  <Activity by gel>
−

$$$$

* * *

STUDY_SYSTEM: CNOT7 (Homo sapiens, UniProt Q9UIV1)
Construct: biotin (biotinylated); purchased Ichor Life Sciences
Sequence (Q9UIV1 whole entry): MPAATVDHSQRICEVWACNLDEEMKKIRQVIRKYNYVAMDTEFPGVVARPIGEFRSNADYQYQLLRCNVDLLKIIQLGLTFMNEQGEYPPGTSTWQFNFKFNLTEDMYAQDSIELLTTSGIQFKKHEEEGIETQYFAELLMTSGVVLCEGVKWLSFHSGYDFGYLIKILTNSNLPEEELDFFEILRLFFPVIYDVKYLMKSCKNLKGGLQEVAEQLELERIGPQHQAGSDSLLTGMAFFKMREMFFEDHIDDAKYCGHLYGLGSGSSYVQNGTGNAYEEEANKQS
PROTOCOL_NOTES: Binding of compounds to CNOT7 by surface plasmon resonance (SPR)
CONDITION_SUMMARY: dissociation constant by SPR, Table 7

>  <MOLECULE>
COc1ccc2c(c1)C[C@H](COCCOCCOCCOCCN=[N+]=[N-])N(C(=O)CSc1nc(=O)[nH]cc1Cl)C2

>  <Kd>
1 to 25 µM

$$$$
>  <MOLECULE>
[N-]=[N+]=NCCOCCOCCOCC[C@@H](Sc1nc(=O)[nH]cc1Cl)C(=O)NCc1ccc2c(c1)CC(=O)N2

>  <Kd>
> 25 µM

$$$$
>  <MOLECULE>
COc1ccc2c(c1)C[C@H](COCCOCCOCCOCCn1cc(COCCOCCOc3ccc(NC(=O)Nc4nc(CC(=O)N5CCN(C)CC5)cs4)cc3)nn1)C(C(=O)CSc1nc(=O)[nH]cc1C)C2 (stereo partly drawn)

>  <Kd>
> 25 µM

$$$$
>  <MOLECULE>
COc1ccc(CNC(=O)[C@H](CCOCCOCCOCCN=[N+]=[N-])Sc2nc(=O)[nH]cc2Cl)c(F)c1

>  <Kd>
1 to 25 µM

$$$$
>  <MOLECULE>
C#CCOCCOCCOCCOC[C@@H]1Cc2cc(OC)ccc2[C@H](C)N1C(=O)CSc1nc(=O)[nH]cc1Cl

>  <Kd>
1 to 25 µM

$$$$
>  <MOLECULE>
COc1ccc(CNC(=O)[C@H](CCOCCOCCOCCN=[N+]=[N-])Sc2nc(=O)[nH]cc2Cl)cc1

>  <Kd>
> 25 µM

$$$$

* * *

Listed here: items and their measured Kd.
STUDY_SYSTEM: CNOT7 (Homo sapiens, UniProt Q9UIV1)
Construct: biotin (biotinylated); purchased Ichor Life Sciences
PROTOCOL_NOTES: Binding of compounds to CNOT7 by surface plasmon resonance (SPR)
CONDITION_SUMMARY: Table 5; dissociation constant for CNOT7 by SPR

>  <COMPOUND>
Cc1c[nH]c(=O)nc1SCC(=O)NCc1ccc2c(c1)NCCO2

>  <Kd>
> 25 µM

$$$$
>  <COMPOUND>
COc1ccc([C@@H](C)NC(=O)CSc2nc(=O)[nH]cc2Cl)cc1F

>  <Kd>
1 to 25 µM

$$$$
>  <COMPOUND>
COc1ccc([C@@H](C)NC(=O)CSc2nc(=O)[nH]cc2C)cc1 [Compound I-27]

>  <Kd>
1 to 25 µM

$$$$
>  <COMPOUND>
COc1ccc(C(CO)NC(=O)CSc2nc(=O)[nH]cc2C)cc1 (stereo not drawn)

>  <Kd>
1 to 25 µM

$$$$
>  <COMPOUND>
COc1ccc([C@H](NC(=O)CSc2nc(=O)[nH]cc2C)C(F)(F)F)cc1

>  <Kd>
1 to 25 µM

$$$$
>  <COMPOUND>
COc1ccc(CNC(=O)CSc2nc(=O)[nH]cc2C)cn1

>  <Kd>
> 25 µM

$$$$
>  <COMPOUND>
COc1ccc([C@@H](C)NC(=O)CSc2nc(=O)[nH]cc2F)cc1

>  <Kd>
1 to 25 µM

$$$$
>  <COMPOUND>
Cc1c[nH]c(=O)nc1SCC(=O)NCc1ccc2c(c1)OCCO2

>  <Kd>
1 to 25 µM

$$$$
>  <COMPOUND>
COC[C@H](Sc1nc(=O)[nH]cc1C)C(=O)N[C@H](C)c1ccc2c(c1)CC(=O)N2

>  <Kd>
1 to 25 µM

$$$$
>  <COMPOUND>
CCOc1ccc([C@@H](C)NC(=O)CSc2nc(=O)[nH]cc2C)cc1

>  <Kd>
1 to 25 µM

$$$$
>  <COMPOUND>
Cc1c[nH]c(=O)nc1SCC(=O)NCc1ccc2oc(=O)[nH]c2c1

>  <Kd>
> 25 µM

$$$$
>  <COMPOUND>
COc1ccc([C@@H](C)NC(=O)CSc2nc(=O)[nH]cc2C)cc1 [Compound I-247]

>  <Kd>
1 to 25 µM

$$$$
>  <COMPOUND>
COc1ccc(CN2CC[C@H](Sc3nc(=O)[nH]cc3C)C2=O)cc1

>  <Kd>
> 25 µM

$$$$
>  <COMPOUND>
COCC(Sc1nc(=O)[nH]cc1C)C(=O)NCc1ccc2c(c1)CC(=O)N2 (stereo not drawn)

>  <Kd>
0.1 to 1 µM

$$$$
>  <COMPOUND>
COc1ccc(C(C)NC(=O)C2CC2c2nc(=O)[nH]cc2C)cc1 (stereo not drawn) [Compound I-238]

>  <Kd>
> 25 µM

$$$$
>  <COMPOUND>
COc1ccc([C@H](NC(=O)CSc2nc(=O)[nH]cc2C)C(C)C)cc1

>  <Kd>
1 to 25 µM

$$$$
>  <COMPOUND>
COCC(Sc1nc(=O)[nH]cc1C)C(=O)NC(C)c1ccc2c(c1)CC(=O)N2 (stereo not drawn)

>  <Kd>
1 to 25 µM

$$$$
>  <COMPOUND>
Cc1c[nH]c(=O)nc1SCC(=O)NCc1ccc2c(c1)NC(=O)C2

>  <Kd>
1 to 25 µM

$$$$
